cell viability listing for selected molecules.
System: HepG2
testDescription: cell viability relative to DMSO; higher = less toxic
experimentalConditions: 72 h; 1 nM
All answers are understood in %, so give the number only.

// worked examples, cell viability included
[
  {
    "molecule": "CS(=O)(=O)c1ccc(Oc2cc(F)cc(C#N)c2)c2c1[C@H](O)C(F)(F)C2",
    "propertyMeasured": "cell viability",
    "reportedResult": 103
  },
  {
    "molecule": "CCC(C/C=C/c1ccccc1)(c1ccccc1)N(C)CC1CC1 (configuration not stated)",
    "propertyMeasured": "cell viability",
    "reportedResult": 102
  },
  {
    "molecule": "CCN1C(C)(C)CC(Oc2ccc(C(=O)Nc3ccc(NC(=O)Nc4cc(C(C)(C)C)on4)cc3)nc2)CC1(C)C",
    "propertyMeasured": "cell viability",
    "reportedResult": 100
  }
]

In: Please tell me the measured cell viability for CC(SC(=O)c1cccs1)C(=O)NCC(=O)O (configuration not stated) ; system: HepG2.
Out: 106

In: Please tell me the measured cell viability for "NC1=N[C@@]2(c3cc(NC(=O)c4ccc(F)cn4)ccc3F)COC[C@H]2CS1" ; system: HepG2.
Out: 99.9

In: Please tell me the measured cell viability for "NC(=O)c1cnc(N[C@@H]2CCCC[C@@H]2N)nc1Nc1cccc(-n2nccn2)c1" ; system: HepG2.
Out: 101

In: Please tell me the measured cell viability for "N#CC(C#N)=Cc1ccc(O)c(O)c1" ; system: HepG2.
Out: 93

In: Please tell me the measured cell viability for CC(C)[C@@H](C)/C=C/[C@@H](C)[C@H]1CC[C@H]2/C(=C/C=C3\C[C@@H](O)CC[C@@H]3C)CCC[C@]12C [dihydrotachysterol] ; system: HepG2.
Out: 92.8

In: Please tell me the measured cell viability for "O=C(O)Cc1ccc2c(c1)C(=O)c1ccccc1CO2" ; system: HepG2.
Out: 99.1

###

cell viability listing for selected compounds.
Tested on: HepG2
testDescription: cell viability relative to DMSO; higher = less toxic
experimentalConditions: 72 h; 10000 nM
Please state the number and follow it with the unit.

[
  {
    "compound": "COc1ccc2ccc(=O)oc2c1CC=C(C)C",
    "propertyMeasured": "cell viability",
    "reportedResult": "100%"
  }
]

In: Read off the recorded cell viability for "Cc1cc(/C=C/C#N)cc(C)c1Nc1ccnc(Nc2ccc(C#N)cc2)n1"
Out: 47.7%

In: Read off the recorded cell viability for NCc1c[nH]c(=S)n1[C@H]1CCc2c(F)cc(F)cc2C1 [nepicastat]
Out: 96.2%

In: Read off the recorded cell viability for CC[N+](CC)(CCCNC1=CC(=O)C(NCCC[N+](CC)(CC)Cc2ccccc2)=CC1=O)Cc1ccccc1 [benzoquinonium-dibromide]
Out: 95%

In: Read off the recorded cell viability for "COc1cc(NS(C)(=O)=O)ccc1Nc1c2ccccc2nc2ccccc12"
Out: 29%

In: Read off the recorded cell viability for "CCCc1c(OCCCCc2nnn[nH]2)ccc(C(C)=O)c1O"
Out: 84.8%

###

System: Vero E6
testDescription: cell viability relative to DMSO; higher = less toxic
experimentalConditions: 72 h; 100 nM
propertyMeasured: cell viability (%)
All answers are understood in %, so give the number only.

// worked examples, cell viability included
[
  {
    "compound": "O=c1c(-c2ccc(O)cc2)coc2c([C@@H]3O[C@H](CO)[C@@H](O)[C@H](O)[C@H]3O)c(O)ccc12 [puerarin]",
    "cell viability, %": 99.9
  },
  {
    "compound": "Cc1coc2c1C(=O)C(=O)c1c-2ccc2c(C)cccc12 [tanshinone-I]",
    "cell viability, %": 90.7
  }
]

Let's switch to this compound now.
In: Read off the recorded cell viability for "CC1=NN=C(c2ccc(N)cc2)c2cc3c(cc2C1)OCO3"
Out: 98.4

The measurements presented in this section are drawn from the supplement of paper PMC13380429.
